Experiment: Effective concentration required for antiviral activity against HIV-1 SLKA in PBMC cells
Type: functional, cell-based
Settings: Homo sapiens
pEC50: −log10 of the molar value.
parameterMeasured: pEC50

Worked set:
* Cc1cc(SC2=C(O)O[C@](CCc3ccc(O)cc3)(C(C)C)CC2=O)c(C(C)(C)C)cc1N (stereo in doubt; 1S) | 6.66
* Cc1cc(SC2=C(O)OC(CCc3ccc(O)cc3)(C(C)C)CC2=O)c(C(C)(C)C)cc1OS(C)(=O)=O (stereo not given) | 5.75
* Cc1cc(SC2=C(O)OC(CCc3ccc(O)cc3)(C(C)C)CC2=O)c(C(C)(C)C)cc1OS(=O)(=O)c1cccs1 (stereo not given) | 6.30

(P) Cc1cc(SC2=C(O)OC(CCc3ccccc3)(C(C)C)CC2=O)c(C(C)(C)C)cc1NS(=O)(=O)c1ccc(C(F)(F)F)cn1 (stereo not given)
(Q) Cc1cc(SC2=C(O)O[C@](CCc3ccccc3)(C(C)C)CC2=O)c(C(C)(C)C)cc1NS(=O)(=O)c1ccc(C#N)cc1
Query: Pick one: P or Q . Which has the bigger pEC50 number? Your choice should be expressed through its label.
Result: Q
(Q: 6.92, P: 6.15)

###

Assay: Effective concentration required for antiviral activity against HIV-1 TEKI in PBMC cells
Type: functional, cell-based
Conditions: Homo sapiens
parameterMeasured: EC50 (nM)

- Cc1cc(SC2=C(O)OC(CCc3ccc(O)cc3)(C(C)C)CC2=O)c(C(C)(C)C)cc1OS(=O)(=O)c1cccs1 (stereo not given): 780
- Cc1cc(SC2=C(O)O[C@](CCc3ccc(O)cc3)(C(C)C)CC2=O)c(C(C)(C)C)cc1N (stereo in doubt; 1S): 590

(A) Cc1cc(SC2=C(O)OC(CCc3ccccc3)(C(C)C)CC2=O)c(C(C)(C)C)cc1NS(=O)(=O)c1ccc(C(F)(F)F)cn1 (stereo not given)
(B) Cc1cc(SC2=C(O)OC(CCc3ccc(O)cc3)(C(C)C)CC2=O)c(C(C)(C)C)cc1OS(C)(=O)=O (stereo not given)
(C) Cc1cc(SC2=C(O)O[C@](CCc3ccccc3)(C(C)C)CC2=O)c(C(C)(C)C)cc1NS(=O)(=O)c1ccc(C#N)cc1
Query: Order the 3 compounds from highest to lowest EC50. Thanks in advance for listing the labels in the requested order.
Result: B, A, C

###

Assay: Tested for cytotoxic activity against HIV-1 1026-60 in PBMC cells
Assay type: cell-based
Conditions: human, read-out: TC50 (the source's name)
# maps each entry to its CC50

Query: CC50; subject: CC(C)(C)NC(=O)[C@@H]1C[C@@H]2CCCC[C@@H]2CN1C[C@@H](O)[C@H](Cc1ccccc1)NC(=O)[C@H](CC(N)=O)NC(=O)c1ccc2ccccc2n1
Result: > 50 µM

Query: Name the recorded CC50 for Cc1cc(SC2=C(O)O[C@](CCc3ccc(O)cc3)(C(C)C)CC2=O)c(C(C)(C)C)cc1N (stereo in doubt; 1S) .
Result: > 100 µM

Query: # input compound: Cc1cc(SC2=C(O)OC(CCc3ccc(O)cc3)(C(C)C)CC2=O)c(C(C)(C)C)cc1OS(C)(=O)=O (stereo unspecified) ; wanted: its CC50
Result: > 100 µM

Query: Reported CC50 for CC(C)(C)NC(=O)[C@@H]1CN(Cc2cccnc2)CCN1C[C@@H](O)C[C@@H](Cc1ccccc1)C(=O)N[C@H]1c2ccccc2C[C@H]1O : what is it?
Result: > 100 µM

Query: Could you tell me which CC50 is on file for Cc1cc(SC2=C(O)OC(CCc3ccc(O)cc3)(C(C)C)CC2=O)c(C(C)(C)C)cc1OS(=O)(=O)c1cccs1 (stereo unspecified) ?
Result: > 100 µM

Query: So what does the record say about CC50 for Cc1cc(SC2=C(O)OC(CCc3ccccc3)(C(C)C)CC2=O)c(C(C)(C)C)cc1NS(=O)(=O)c1ccc(C(F)(F)F)cn1 (stereo unspecified) ?
Result: > 100 µM

###

Biological target: Human immunodeficiency virus type 1 protease (Human immunodeficiency virus 1, UniProt Q72874)
Test: Activity of potent nonpeptidic inhibitor against protease
pIC50: −log10 of the molar value.
parameterMeasured: pIC50

Examples with their reported pIC50 follow.
* Cc1cc(SC2=C(O)OC(C)(CCc3ccc(O)cc3)CC2=O)c(C(C)(C)C)cc1OS(=O)(=O)c1ccc(F)cc1 (stereo unspecified) | 7.77
* Cc1cc(SC2=C(O)OC(CCc3ccccc3)(C(C)C)CC2=O)c(C(C)(C)C)cc1NS(=O)(=O)Cn1ccnc1 (stereo unspecified) | 8.72
* Cc1cc(SC2=C(O)OC(CCc3ccc(O)cc3)(C(C)C)CC2=O)c(C(C)(C)C)cc1NS(C)(=O)=O (stereo unspecified) | 8.40
* Cc1cc(SC2=C(O)OC(CCc3ccc(O)cc3)(C(C)C)CC2=O)c(C(C)(C)C)cc1OS(=O)(=O)c1cccnc1 (stereo unspecified) | 8.46
* Cc1cc(SC2=C(O)OC(CCc3ccc(O)cc3)(C3CCCCC3)CC2=O)c(C(C)(C)C)cc1OS(=O)(=O)c1ccc(F)cc1 (stereo unspecified) | 7.54
* Cc1cc(SC2=C(O)OC(CCc3ccc(N)cc3)(C(C)C)CC2=O)c(C(C)(C)C)cc1OS(=O)(=O)c1cccnc1 (stereo unspecified) | 8.39

(a) Cc1cc(SC2=C(O)OC(CCc3ccc(O)cc3)(C(C)C)CC2=O)c(C(C)(C)C)cc1OS(=O)(=O)c1ccccc1 (stereo unspecified)
(b) CCNS(=O)(=O)Nc1cc(C(C)(C)C)c(SC2=C(O)OC(CCc3ccccc3)(C(C)C)CC2=O)cc1C (stereo unspecified)
Query: // which entry has the larger pIC50 value, a or b ? Give the label under which the chosen entry appears.
Result: b

(A) Cc1cc(SC2=C(O)OC(C)(CCc3ccc(O)cc3)CC2=O)c(C(C)(C)C)cc1NS(=O)(=O)c1ccc(Cl)cc1 (stereo unspecified)
(B) Cc1cc(SC2=C(O)OC(C)(CCc3ccc(O)cc3)CC2=O)c(C(C)(C)C)cc1NS(C)(=O)=O (stereo unspecified)
Query: Hi team, can someone confirm which has the larger pIC50: A or B ? Thanks. Bench note: the answer is the label of the chosen record.
Result: A

(P) Cc1cc(SC2=C(O)OC(CCc3ccc(N)cc3)(C(C)C)CC2=O)c(C(C)(C)C)cc1OS(=O)(=O)c1ccc(C#N)cc1 (stereo unspecified)
(Q) Cc1cc(SC2=C(O)OC(CCc3ccc(O)cc3)(C(C)C)CC2=O)c(C(C)(C)C)cc1NS(=O)(=O)c1cccs1 (stereo unspecified)
(R) Cc1cc(SC2=C(O)OC(CCc3ccc(O)cc3)(C(C)C)CC2=O)c(C(C)(C)C)cc1NS(=O)(=O)N(C)C (stereo unspecified)
Query: // smallest pIC50 at index 0, largest at the end Response field: labels, in requested order.
Result: Q, R, P
(Q: 8.06, R: 8.44, P: 8.89)

(P) Cc1cc(SC2=C(O)OC(CCc3ccc(O)cc3)(C3CCCC3)CC2=O)c(C(C)(C)C)cc1NS(=O)(=O)c1ccccc1 (stereo unspecified)
(Q) Cc1cc(SC2=C(O)OC(CCc3ccc(O)cc3)(C(C)C)CC2=O)c(C(C)(C)C)cc1NS(=O)(=O)c1ccc(C#N)cc1 (stereo unspecified)
Query: Parameter check: reported pIC50 is higher for which label, P or Q ? Return value: the label identifying the chosen record.
Result: Q
(Q: 8.66, P: 8.07)

###

Test system: Human immunodeficiency virus 1
Experiment: Effective concentration at which 50% of the HIV-IIIB-infected human lymphocyte-derived CEM cells protected from HIV-1 infection
Conditions: Human immunodeficiency virus 1, CCRF-CEM
pEC50: −log10 of the molar value.
parameterMeasured: pEC50

- Cc1cc(SC2=C(O)O[C@](CCc3ccc(O)cc3)(C(C)C)CC2=O)c(C(C)(C)C)cc1OS(C)(=O)=O: 6.28

(a) Cc1cc(SC2=C(O)OC(C)(CCc3ccc(O)cc3)CC2=O)c(C(C)(C)C)cc1NS(C)(=O)=O (centres undefined)
(b) Cc1cc(SC2=C(O)OC(C)(CCc3ccc(O)cc3)CC2=O)c(C(C)(C)C)cc1NS(=O)(=O)c1ccc(Cl)cc1 (centres undefined)
(c) Cc1cc(SC2=C(O)OC(CCc3ccccc3)(C(C)C)CC2=O)c(C(C)(C)C)cc1NS(=O)(=O)c1ccc(C#N)cc1 (centres undefined)
Query: Kindly order the items shown according to pEC50, from the highest value down. I would appreciate it if you listed the labels in the requested order.
Result: c, b, a
(c: 6.30, b: 5.41, a: 4.72)

###

Biological target: Human immunodeficiency virus type 1 protease (Human immunodeficiency virus 1)
pIC50: −log10 of the molar value.
parameterMeasured: pIC50

* Cc1cc(SC2=C(O)OC(CCc3ccccc3)(C(C)C)CC2=O)c(C(C)(C)C)cc1OS(=O)(=O)c1ccccn1 (stereo unspecified) | 8.17
* Cc1cc(SC2=C(O)OC(CCc3ccc(O)cc3)(C(C)C)CC2=O)c(C(C)(C)C)cc1OS(=O)(=O)c1cccs1 (stereo unspecified) | 7.66
* Cc1cc(SC2=C(O)OC(CCc3ccc(N)cc3)(C(C)C)CC2=O)c(C(C)(C)C)cc1OS(=O)(=O)c1cccs1 (stereo unspecified) | 7.73
* Cc1cc(SC2=C(O)OC(CCc3ccccc3)(C(C)C)CC2=O)c(C(C)(C)C)cc1N (stereo unspecified) | 8.44
* Cc1cc(SC2=C(O)OC(CCc3ccc(O)cc3)(C3CCCCC3)CC2=O)c(C(C)(C)C)cc1OS(=O)(=O)c1ccc(C#N)cc1 (stereo unspecified) | 7.68

(1) Cc1cc(SC2=C(O)OC(C)(CCc3ccc(O)cc3)CC2=O)c(C(C)(C)C)cc1NS(=O)(=O)c1ccc(C(F)(F)F)cc1 (stereo unspecified)
(2) Cc1cc(SC2=C(O)OC(CCc3ccc(O)cc3)(C3CCCCC3)CC2=O)c(C(C)(C)C)cc1OS(=O)(=O)c1ccccc1 (stereo unspecified)
Query: I'm curious whether 1 or 2 has the smaller pIC50 number. Which is it? Output the label that corresponds to your choice.
Result: 2
(2: 6.88, 1: 7.91)

(1) Cc1cc(SC2=C(O)OC(CCc3ccc(O)cc3)(C(C)C)CC2=O)c(C(C)(C)C)cc1OS(=O)(=O)c1ccccn1 (stereo unspecified)
(2) Cc1cc(SC2=C(O)OC(C)(CCc3ccc(O)cc3)CC2=O)c(C(C)(C)C)cc1NS(=O)(=O)c1ccccc1 (stereo unspecified)
(3) Cc1cc(SC2=C(O)OC(C)(CCc3ccc(O)cc3)CC2=O)c(C(C)(C)C)cc1N (stereo unspecified)
(4) Cc1cc(SC2=C(O)OC(CCc3ccc(O)cc3)(C(C)C)CC2=O)c(C(C)(C)C)cc1NS(=O)(=O)c1ccccn1 (stereo unspecified)
Query: Rank ascending by pIC50. Would you mind listing the labels in the order requested?
Result: 3, 1, 4, 2
